target: IGF1 receptor (IGF1R) (Homo sapiens, UniProt P08069); construct: endogenous in cells; assay: Inhibition of IGF1R (ELISA assay), IGF1-stimulated autophosphorylation in cells; conditions: human tumour cells stimulated with IGF1, read-out: IC50 IGF (ELISA)
Sequence (P08069 31-1367): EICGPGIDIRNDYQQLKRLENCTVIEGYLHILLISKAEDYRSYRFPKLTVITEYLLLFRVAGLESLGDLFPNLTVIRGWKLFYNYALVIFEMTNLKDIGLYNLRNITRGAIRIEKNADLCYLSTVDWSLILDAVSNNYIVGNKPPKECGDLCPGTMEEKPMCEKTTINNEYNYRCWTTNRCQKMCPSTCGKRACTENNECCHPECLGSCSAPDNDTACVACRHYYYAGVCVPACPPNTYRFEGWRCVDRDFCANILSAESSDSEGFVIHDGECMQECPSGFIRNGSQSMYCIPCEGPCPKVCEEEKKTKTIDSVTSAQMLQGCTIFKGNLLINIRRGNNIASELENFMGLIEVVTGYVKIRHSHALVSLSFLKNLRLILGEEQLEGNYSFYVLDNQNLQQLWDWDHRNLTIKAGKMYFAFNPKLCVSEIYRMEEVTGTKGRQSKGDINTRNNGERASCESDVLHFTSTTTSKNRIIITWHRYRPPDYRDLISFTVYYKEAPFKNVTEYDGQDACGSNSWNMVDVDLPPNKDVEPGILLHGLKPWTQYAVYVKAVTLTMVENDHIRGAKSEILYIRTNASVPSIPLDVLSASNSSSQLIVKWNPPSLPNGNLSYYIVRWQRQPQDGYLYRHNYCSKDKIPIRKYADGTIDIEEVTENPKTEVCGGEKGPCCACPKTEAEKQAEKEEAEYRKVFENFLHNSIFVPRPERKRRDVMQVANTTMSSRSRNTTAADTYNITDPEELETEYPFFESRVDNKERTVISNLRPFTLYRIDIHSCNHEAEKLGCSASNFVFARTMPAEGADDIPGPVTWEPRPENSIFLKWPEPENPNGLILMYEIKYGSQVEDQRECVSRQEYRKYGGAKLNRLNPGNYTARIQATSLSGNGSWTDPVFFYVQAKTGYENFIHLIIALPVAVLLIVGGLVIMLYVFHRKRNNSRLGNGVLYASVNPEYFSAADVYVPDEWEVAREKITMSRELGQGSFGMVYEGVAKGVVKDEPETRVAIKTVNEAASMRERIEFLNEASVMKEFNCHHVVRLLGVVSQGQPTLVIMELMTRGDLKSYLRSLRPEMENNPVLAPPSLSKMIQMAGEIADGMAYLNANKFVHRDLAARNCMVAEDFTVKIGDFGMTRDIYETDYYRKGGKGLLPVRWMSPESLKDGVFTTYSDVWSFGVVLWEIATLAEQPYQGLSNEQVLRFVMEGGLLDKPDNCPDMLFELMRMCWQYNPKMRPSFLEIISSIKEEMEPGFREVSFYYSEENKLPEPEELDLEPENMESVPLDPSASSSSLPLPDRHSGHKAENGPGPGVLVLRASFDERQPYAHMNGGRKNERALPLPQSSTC
Please use satisfied for IC50 under 4 µM and not satisfied for everything else, ties included.

Exam item: API: query returns whether the molecule falls strictly under 4 µM in IC50. Query: NCC1CC(n2cc(-c3cccc(N)c3)c3c(N)ncnc32)C1 (stereo not shown)
Marked response: not satisfied

====

system: CHK; experiment: Inhibition of CHK (flashplate method); format: biochemical
readout kind: IC50 (µM)
Numeric answer only, unit µM assumed.

Exam item: Entry NCC1CC(n2cc(-c3ccco3)c3c(N)ncnc32)C1 (stereo not shown) [Compound 38] has what IC50?
Marked response: 8.8

====

molecular target: FAK (focal adhesion kinase) (Homo sapiens); construct: endogenous in cells; test: Inhibition of FAK (ELISA assay), FAK phosphorylation in cells; details: human cells with FAK amplification
readout kind: IC50
The reply should consist of the numeric value with the unit placed after it.

Here's what some known entries look like.
CS(=O)(=O)Nc1cccc(-c2cn(C3CC(CN)C3)c3ncnc(N)c23)c1 (stereo not drawn); 28000 nM
NCC1CC(n2cc(-c3cccc(N)c3)c3c(N)ncnc32)C1 (stereo not drawn); 1210 nM
NCC1CC(n2cc(-c3ccc4[nH]ccc4c3)c3c(N)ncnc32)C1 (stereo not drawn); 370 nM
NCC1CC(n2cc(-c3ccc4occc4c3)c3c(N)ncnc32)C1 (stereo not drawn); 630 nM
NCC1CC(n2cc(-c3ccoc3)c3c(N)ncnc32)C1 (stereo not drawn); 15000 nM

Exam item: Given the entry NCC1CC(n2cc(-c3ccc4c(c3)OCCO4)c3c(N)ncnc32)C1 (stereo not drawn) , report its measured IC50.
Marked response: 1900 nM

====

Quick list: IC50 per entry.
biological target: FAK (Homo sapiens, UniProt Q05397)
// units = nM; emit number, no label

Nc1ncnc2c1c(-c1cccc(O)c1)cn2C1CC(CN2CCCC2)C1 (centres unmarked) [Compound 1]; 1800

Consider now this further compound.
Exam item: Recorded IC50 of Nc1ncnc2c1c(-c1cccc(O)c1)cn2C1CC(CN2CCCC2)C1 (centres unmarked) [Compound 2] , please.
Marked response: 2700

====

biological target: FAK (focal adhesion kinase) (Homo sapiens, UniProt Q05397); construct: endogenous in cells; host or cells: Calu-6 or HT-29; test: Inhibition of FAK (ELISA assay), FAK phosphorylation in cells; assay type: cell-based; conditions: human cells with FAK amplification
Sequence (Q05397 whole entry): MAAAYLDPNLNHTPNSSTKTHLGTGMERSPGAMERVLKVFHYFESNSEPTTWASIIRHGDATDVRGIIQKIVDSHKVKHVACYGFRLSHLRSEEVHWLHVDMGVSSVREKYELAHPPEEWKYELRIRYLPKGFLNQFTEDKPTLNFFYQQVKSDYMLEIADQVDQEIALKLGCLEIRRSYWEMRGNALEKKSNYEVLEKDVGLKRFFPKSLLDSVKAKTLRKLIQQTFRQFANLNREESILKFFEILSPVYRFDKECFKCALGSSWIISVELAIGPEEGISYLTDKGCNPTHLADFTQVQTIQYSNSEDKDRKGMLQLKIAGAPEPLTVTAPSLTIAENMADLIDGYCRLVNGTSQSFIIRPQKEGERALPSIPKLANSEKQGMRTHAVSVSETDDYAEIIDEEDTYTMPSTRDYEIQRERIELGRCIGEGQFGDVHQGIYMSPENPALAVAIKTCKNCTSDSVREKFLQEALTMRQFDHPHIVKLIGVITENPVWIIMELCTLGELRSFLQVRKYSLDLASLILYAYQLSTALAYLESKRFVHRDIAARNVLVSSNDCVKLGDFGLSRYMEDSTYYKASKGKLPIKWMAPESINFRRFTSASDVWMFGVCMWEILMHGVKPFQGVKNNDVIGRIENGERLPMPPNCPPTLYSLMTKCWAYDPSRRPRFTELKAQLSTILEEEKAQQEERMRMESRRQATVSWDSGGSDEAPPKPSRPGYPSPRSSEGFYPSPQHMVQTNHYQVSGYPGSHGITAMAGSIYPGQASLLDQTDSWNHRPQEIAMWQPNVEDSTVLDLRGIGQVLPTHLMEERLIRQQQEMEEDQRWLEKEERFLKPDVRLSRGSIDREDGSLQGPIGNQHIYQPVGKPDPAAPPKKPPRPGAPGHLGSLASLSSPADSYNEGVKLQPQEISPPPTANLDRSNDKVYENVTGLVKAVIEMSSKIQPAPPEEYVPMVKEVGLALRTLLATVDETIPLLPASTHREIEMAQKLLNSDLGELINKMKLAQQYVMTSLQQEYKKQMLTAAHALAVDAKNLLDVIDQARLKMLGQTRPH
pIC50 listing for selected compounds.
pIC50 is defined as minus the log10 of a concentration measured in mol/L.

For orientation, consider the following solved cases.
CC(=O)Nc1cccc(-c2cn(C3CC(CN)C3)c3ncnc(N)c23)c1 (centres unmarked); 4.77
Nc1ncnc2c1c(-c1ccc3c(c1)OCCO3)cn2C1CC(CN2CCCC2)C1 (centres unmarked); 4.55
NCC1CC(n2cc(-c3cccc(F)c3)c3c(N)ncnc32)C1 (centres unmarked); 5.85
Nc1ncnc2c1c(-c1ccc3occc3c1)cn2C1CC(CNC(=O)C(F)(F)F)C1 (centres unmarked); 5.44
NCC1CC(n2cc(-c3cc4ccccc4o3)c3c(N)ncnc32)C1 (centres unmarked); 5.21
NCC1CC(n2cc(-c3cccc([N+](=O)[O-])c3)c3c(N)ncnc32)C1 (centres unmarked); 5.40
C[Si](C)(C)COc1cccc(-c2cn(C3CC(CN)C3)c3ncnc(N)c23)c1 (centres unmarked); 4.85

Now look at this entry.
Exam item: For the compound shown here, C[Si](C)(COc1cccc(-c2cn(C3CC(CN)C3)c3ncnc(N)c23)c1)c1ccccc1 (centres unmarked) , give the reported pIC50.
Marked response: 4.80

====

Reported pIC50 values for the following compounds.
Molecular target: FAK (focal adhesion kinase) (Homo sapiens)
Construct: endogenous in cells
Experiment: Inhibition of FAK (ELISA assay), FAK phosphorylation in cells
Conditions: human cells with FAK amplification
Description: Activated FAK promotes the invasive growth of tumour cells and inhibits anoikis. The amount of phosphorylated FAK is determined by a specific capture ELISA or an analogous LUMINEX assay. […] For determination of the activity of kinase inhibitors, cells are pretreated with increasing concentrations of these compounds for 45 min, and the FAK phosphorylation is then determined. As internal control, a concentration series of a reference inhibitor is measured.
Recall that pIC50 is obtained by taking minus log10 of the concentration measured in molar.

Study these solved cases before continuing.
N#Cc1ccc(-c2cn(C3CC(CN)C3)c3ncnc(N)c23)cc1F (centres unmarked) [Compound 59]; 5.39
NCC1CC(n2cc(-c3cccc(C(F)(F)F)c3)c3c(N)ncnc32)C1 (centres unmarked) [Compound 17]; 4.60
NCC1CC(n2cc(-c3cccc4occc34)c3c(N)ncnc32)C1 (centres unmarked) [Compound 65]; 6.38
NCC1CC(n2cc(-c3ccc(N)cc3)c3c(N)ncnc32)C1 (centres unmarked) [Compound 24]; 5.48

Exam item: Data request, read-out pIC50, for NCC1CC(n2cc(-c3cccs3)c3c(N)ncnc32)C1 (centres unmarked) [Compound 41]
Marked response: 5.42

====

Data export: pIC50 values recorded with TGFβR1 (Homo sapiens).
Sequence (P36897 34-503): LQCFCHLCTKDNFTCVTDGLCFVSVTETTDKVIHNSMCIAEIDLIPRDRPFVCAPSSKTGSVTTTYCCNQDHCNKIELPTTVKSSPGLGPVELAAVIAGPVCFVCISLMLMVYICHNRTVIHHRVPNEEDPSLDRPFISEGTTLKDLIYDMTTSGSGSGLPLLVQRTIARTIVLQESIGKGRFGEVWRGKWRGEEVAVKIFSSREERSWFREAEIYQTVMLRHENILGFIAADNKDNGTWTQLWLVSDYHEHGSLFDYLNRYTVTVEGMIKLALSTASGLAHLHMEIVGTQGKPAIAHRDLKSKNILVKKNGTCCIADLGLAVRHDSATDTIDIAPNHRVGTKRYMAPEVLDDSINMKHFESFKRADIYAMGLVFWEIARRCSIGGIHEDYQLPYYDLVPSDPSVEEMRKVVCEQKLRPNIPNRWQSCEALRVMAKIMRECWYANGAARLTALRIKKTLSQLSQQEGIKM
Scale: pIC50 equals -log10([C]), with [C] in mol/L.

The examples below pair each entry with its known result.
CC(=O)Nc1cccc(-c2cn(C3CC(CN)C3)c3ncnc(N)c23)c1 (stereo not shown); 5.19
NCC1CC(n2cc(-c3ccc4[nH]ccc4c3)c3c(N)ncnc32)C1 (stereo not shown); 6.74
NCC1CC(n2cc(-c3cccc(N)c3)c3c(N)ncnc32)C1 (stereo not shown); 6.09
N#Cc1ccc(-c2cn(C3CC(CN)C3)c3ncnc(N)c23)cc1F (stereo not shown); 5.08
NCC1CC(n2cc(-c3cccc(NCc4ccccc4)c3)c3c(N)ncnc32)C1 (stereo not shown); 5.43
NCC1CC(n2cc(-c3cc4ccccc4o3)c3c(N)ncnc32)C1 (stereo not shown); 6.68
N#Cc1cccc(-c2cn(C3CC(CN)C3)c3ncnc(N)c23)c1 (stereo not shown); 5.21
NCC1CC(n2cc(-c3ccc4c(c3)OCCO4)c3c(N)ncnc32)C1 (stereo not shown); 5.80

Exam item: Recorded pIC50 for NCC1CC(n2cc(-c3cccc(C(N)=O)c3)c3c(N)ncnc32)C1 (stereo not shown) , please?
Marked response: 6.28

Exam item: Any idea what pIC50 was measured for NCC1CC(n2cc(-c3cccc(OC(F)(F)F)c3)c3c(N)ncnc32)C1 (stereo not shown) ?
Marked response: 6.00

Exam item: What measured pIC50 goes with Nc1ncnc2c1c(-c1ccc3occc3c1)cn2C1CC(CNC(=O)C(F)(F)F)C1 (stereo not shown) ?
Marked response: 6.48

Exam item: For CN(Cc1ccccc1)c1cccc(-c2cn(C3CC(CN)C3)c3ncnc(N)c23)c1 (stereo not shown) , what is its reported pIC50?
Marked response: 5.96

Exam item: Given the molecule NCC1CC(n2cc(-c3ccsc3)c3c(N)ncnc32)C1 (stereo not shown) , what is its reported pIC50?
Marked response: 5.66

Exam item: Fill in: pIC50 of Nc1ncnc2c1c(-c1cccc(O)c1)cn2C1CC(CN2CCCC2)C1 (stereo not shown) is ___
Marked response: 6.85

Exam item: Entry NCC1CC(n2cc(-c3cccc4occc34)c3c(N)ncnc32)C1 (stereo not shown) has what pIC50?
Marked response: 7.35

Exam item: Given the entry NCC1CC(n2cc(-c3ccc4occc4c3)c3c(N)ncnc32)C1 (stereo not shown) , report its measured pIC50.
Marked response: 7.26

====

A short record of IC50 observed with TIE2 (Homo sapiens) follows.
Sequence (Q02763 23-1124, species assumed): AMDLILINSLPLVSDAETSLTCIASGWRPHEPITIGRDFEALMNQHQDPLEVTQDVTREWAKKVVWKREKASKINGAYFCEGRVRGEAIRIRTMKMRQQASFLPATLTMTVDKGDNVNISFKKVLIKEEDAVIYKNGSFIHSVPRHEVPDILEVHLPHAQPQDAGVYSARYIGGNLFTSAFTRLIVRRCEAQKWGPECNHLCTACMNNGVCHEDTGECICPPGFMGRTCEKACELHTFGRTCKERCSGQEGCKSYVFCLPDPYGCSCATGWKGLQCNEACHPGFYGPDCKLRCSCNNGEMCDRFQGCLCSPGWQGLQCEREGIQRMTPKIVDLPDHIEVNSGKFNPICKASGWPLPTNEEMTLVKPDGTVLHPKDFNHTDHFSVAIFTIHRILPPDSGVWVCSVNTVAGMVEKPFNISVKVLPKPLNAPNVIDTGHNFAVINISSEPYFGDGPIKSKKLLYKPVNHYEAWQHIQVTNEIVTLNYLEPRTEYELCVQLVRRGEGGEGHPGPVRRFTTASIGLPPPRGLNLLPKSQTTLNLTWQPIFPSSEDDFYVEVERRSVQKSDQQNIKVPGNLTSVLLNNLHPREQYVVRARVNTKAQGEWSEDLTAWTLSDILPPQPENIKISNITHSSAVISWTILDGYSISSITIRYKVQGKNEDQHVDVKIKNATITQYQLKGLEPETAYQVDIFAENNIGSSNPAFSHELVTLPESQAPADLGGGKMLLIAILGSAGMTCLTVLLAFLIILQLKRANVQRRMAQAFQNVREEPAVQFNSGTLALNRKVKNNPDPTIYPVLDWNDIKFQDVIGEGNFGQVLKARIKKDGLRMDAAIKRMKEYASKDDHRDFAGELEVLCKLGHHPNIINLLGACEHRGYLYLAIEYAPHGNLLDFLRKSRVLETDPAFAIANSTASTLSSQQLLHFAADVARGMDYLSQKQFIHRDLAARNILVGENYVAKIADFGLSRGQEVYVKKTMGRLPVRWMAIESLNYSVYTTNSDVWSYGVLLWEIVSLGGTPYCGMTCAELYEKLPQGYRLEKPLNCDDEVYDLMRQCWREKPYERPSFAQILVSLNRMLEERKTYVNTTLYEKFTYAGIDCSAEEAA
Write down the numeric answer in nM and omit the unit.

Some entries whose results are on file:
Nc1ncnc2c1c(-c1cccc(O)c1)cn2C1CC(CN2CCCC2)C1 (stereo not drawn) [Compound 1]; 520
NCC1CC(n2cc(-c3cc4ccccc4o3)c3c(N)ncnc32)C1 (stereo not drawn); 1100

Exam item: # query: IC50 | item NCC1CC(n2cc(-c3ccc4c(c3)OCCO4)c3c(N)ncnc32)C1 (stereo not drawn) | system: TIE2 (Homo sapiens)
Marked response: 2000

====

For PDGFRβ (Homo sapiens, UniProt P09619), measured pIC50 is reported for the entries below.
The meaning of pIC50 here: minus log10 of the concentration in molar units.

NCC1CC(n2cc(-c3cc4ccccc4o3)c3c(N)ncnc32)C1 (stereo not shown) [Compound 37]; 6.77
NCC1CC(n2cc(-c3ccc4c(c3)OCCO4)c3c(N)ncnc32)C1 (stereo not shown) [Compound 53]; 5.96
NCC1CC(n2cc(-c3ccc(N)cc3)c3c(N)ncnc32)C1 (stereo not shown) [Compound 5]; 6.20

Exam item: What pIC50 value was documented for this compound, NCC1CC(n2cc(-c3ccc4c(c3)n(Cc3ccccc3)c(=O)n4Cc3ccccc3)c3c(N)ncnc32)C1 (stereo not shown) [Compound 33] ?
Marked response: 5.16

====

experiment: Solubility in phosphate buffer by the shake flask method; type: physicochemical; conditions: 37 °C, pH 7, aqueous buffer, thermodynamic from solid, pH 7.0, 37° C., 24 h shake flask
readout kind: solubility at 24 h

CS(=O)(=O)c1cccc(-c2cn(C3CC(CN)C3)c3ncnc(N)c23)c1 (stereo not drawn); > 1000 µg/mL
NCC1CC(n2cc(-c3cccc(OCc4ccccc4)c3)c3c(N)ncnc32)C1 (stereo not drawn) [reference compound]; 233 µg/mL
Nc1ncnc2c1c(-c1cccc(OCc3ccccc3)c1)cn2C1CC(CNC(=O)N2CCCCC2)C1 (stereo not drawn) [reference compound]; < 1 µg/mL

Exam item: Give its solubility at 24 h value. Item: Nc1ncnc2c1c(-c1cccc(O)c1)cn2C1CC(CN2CCCC2)C1 (stereo not drawn)
Marked response: 1070 µg/mL

Exam item: Can you share its solubility at 24 h? I mean this compound: NCC1CC(n2cc(-c3ccc(N)cc3)c3c(N)ncnc32)C1 (stereo not drawn)
Marked response: 1090 µg/mL

Exam item: Entry under review: CCCCOc1cccc(-c2cn(C3CC(CN)C3)c3ncnc(N)c23)c1 (stereo not drawn) . Reported solubility at 24 h?
Marked response: 1120 µg/mL
